Target: PDGF-BB (Homo sapiens, UniProt P01127 P01127:82-190)
Sequence (P01127 82-190, one chain of several): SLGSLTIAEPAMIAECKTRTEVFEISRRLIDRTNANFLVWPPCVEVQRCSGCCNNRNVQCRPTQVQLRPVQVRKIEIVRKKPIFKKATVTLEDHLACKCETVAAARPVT
Assay: SPR; virtually same as S1
Conditions: tags: R&D Systems; amine-coupled to SPR chip; chain copies: 2 (inferred, homodimer)
Procedure: The affinities of the aptamers were measured with surface plasmon resonance (SPR) spectrometry (SR7000DC, Reichert Analytical Instrument, Depew, N.Y.). Carboxyl group-functionalized sensor chips were purchased from the Reichert Analytical Instrument. […] The dissociation constant (KD) was determined by fitting the data to a simple biomolecular “1:1 binding” model.
reportedMetric: binding result

GCAACTGCTCACAGGCTACGGCACGTAGAGCATCACCATGATCCTG (ssDNA) [S9]; binds
CAATTCCGCGACAGGCTACGGCACGTAGAGCATCACCATGATCCTG (ssDNA) [S2]; binds
CGCCATTCAGACAGGCTACGGCACGTAGAGCATCACCATGATCCTG (ssDNA) [S4]; binds

Data provenance is patent US20130196915.
